Values from PubChem BioAssay (NCI)

- Test system: HL-60(TB) leukemia
- assay_procedure: NCI-60 one-dose screen, 48 h (100 = growth as untreated, 0 = no growth, -100 = all killed)
- test_context: 10 µM unless noted
This is part of a sample that, as a whole, favours compounds with a hit. Of some 83,000 tested, about 20% had one in any assay.
Recorded growth, one value per entry.
parameter_measured: growth (%)

compound | meas_value
O=C1Nc2ccccc2/C1=C/C(=N/c1nnc(-c2ccc(Cl)cc2)s1)c1ccccc1 | -31.8
COc1ccc(-c2nn(-c3cccc(Cl)c3)cc2-c2cc(-c3ccccc3)nc(N)n2)cc1 | 56.3
CN(C)c1ccc(C#Cc2c(F)cccc2Cl)cc1 | 79
CC1(c2ccc(Cl)cc2)OC(=O)CC(=O)O1 | 74.7
CNC(=O)c1cc(Oc2ccc3nc(NC(=O)Nc4cc(C(F)(F)F)cc(C(F)(F)F)c4)sc3c2)ccn1 | -39.8
O=[N+]([O-])c1cc2c(cc1Br)C1C(C3C2C(Cl)(Cl)C(Cl)=C(Cl)C3(Cl)Cl)C(Cl)(Cl)C(Cl)=C(Cl)C1(Cl)Cl (centres undefined) | 110
CC(=O)OC1CC2C(C)(C)CCC[C@]2(C)C2=C1C(O)=C(C(C)C)C(=O)C2=O (some centres undefined) | 3.12
COc1ccc(/C=N/C2=C(C#N)C(c3ccc(N(C)C)cc3)c3ccc4ccccc4c3O2)cc1 (centres undefined) | 19.6
N=C(N)c1ccc(-c2ccc(-c3ccccc3)s2)nc1 | 16.6
